Documented mass density across a set of compounds
Conditions: 308.15 K; 101.33 kPa; Liquid; Pycnometric method
Counter-ions that a name gives are not always drawn.
Numeric answer only, unit kg/m3 assumed.

Look over these answered cases.
compound	mass density / kg/m3
CCOC(=O)CC(CC(=O)OCC)(OC(C)=O)C(=O)OCC [triethyl acetyl citrate]	1127.6
CCOC(=O)CC(O)(CC(=O)OCC)C(=O)OCC [triethyl citrate]	1126.2
CCCCOC(=O)C(C)O (centres undefined) [butyl 2-hydroxypropanoate]	968.4

Turning now to a further record.
Need mass density of CC(=O)OCC(COC(C)=O)OC(C)=O [glyceryl triethanoate] , thanks.
1142
